Each recorded value in this set is attributed to patent US20120316071A1.

target: T1, Recombinant Human DLL4 (delta-like protein 4) (human, UniProt Q9NR61 27-524); assay: ELISA, DLL4 coated on plate, Fab at 100 nM
T1 construct: also called rHuman DLL4; Delta-like 4
Reported ELISA Signal-blank (100 nM Fab) is given for each of the following binders.
Reply: number alone, nothing else.

binder="Fab VH5-51_IGHD5-18*01>3_IGHJ4*01 G100K/G104T G24T/S28R/G35V & V3-4_IGLJ1*01 V91L/S96P T53P (Fab, V domains shown, Fab expressed in E. coli; heavy chain vector adds CH1 with His6 and Flag tags, light chain vector adds lambda CL; also called H:KT TRV & L:LP T53P) VH: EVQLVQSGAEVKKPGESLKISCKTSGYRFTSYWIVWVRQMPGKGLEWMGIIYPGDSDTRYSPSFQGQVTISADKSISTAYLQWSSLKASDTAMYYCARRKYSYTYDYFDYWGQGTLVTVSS VL: QTVVTQEPSFSVSPGGTVTLTCGLSSGSVSTSYYPSWYQQTPGQAPRTLIYSPNTRSSGVPDRFSGSILGNKAALTITGAQADDESDYYCLLYMGPGISYVFGTGTKVTVL" readout_label="ELISA Signal-blank (100 nM Fab)" recorded_number=0.39
binder="Fab VH5-51_IGHD5-18*01>3_IGHJ4*01 G100K/G104T G24T/S28R/G35V & V3-4_IGLJ1*01 V91L/S96P T53Y (Fab, V domains shown, Fab expressed in E. coli; heavy chain vector adds CH1 with His6 and Flag tags, light chain vector adds lambda CL; also called H:KT TRV & L:LP T53Y) VH: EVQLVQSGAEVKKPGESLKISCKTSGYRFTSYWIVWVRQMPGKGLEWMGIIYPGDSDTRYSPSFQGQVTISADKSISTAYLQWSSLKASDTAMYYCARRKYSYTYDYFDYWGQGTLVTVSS VL: QTVVTQEPSFSVSPGGTVTLTCGLSSGSVSTSYYPSWYQQTPGQAPRTLIYSYNTRSSGVPDRFSGSILGNKAALTITGAQADDESDYYCLLYMGPGISYVFGTGTKVTVL" readout_label="ELISA Signal-blank (100 nM Fab)" recorded_number=0.22
binder="Fab VH5-51_IGHD5-18*01>3_IGHJ4*01 G100K/G104T G24T/S28R/G35V & V3-4_IGLJ1*01 V91L/S96P S52Q (Fab, V domains shown, Fab expressed in E. coli; heavy chain vector adds CH1 with His6 and Flag tags, light chain vector adds lambda CL; also called H:KT TRV & L:LP S52Q) VH: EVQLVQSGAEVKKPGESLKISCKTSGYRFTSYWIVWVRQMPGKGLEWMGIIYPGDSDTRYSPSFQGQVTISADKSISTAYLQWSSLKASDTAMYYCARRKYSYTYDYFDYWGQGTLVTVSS VL: QTVVTQEPSFSVSPGGTVTLTCGLSSGSVSTSYYPSWYQQTPGQAPRTLIYQTNTRSSGVPDRFSGSILGNKAALTITGAQADDESDYYCLLYMGPGISYVFGTGTKVTVL" readout_label="ELISA Signal-blank (100 nM Fab)" recorded_number=0.39

Q: What value of ELISA Signal-blank (100 nM Fab) has been reported for the following binder? Fab VH5-51_IGHD5-18*01>3_IGHJ4*01 G100K/G104T G24T/S28R/G35V & V3-4_IGLJ1*01 V91L/S96P T53L (Fab, V domains shown, Fab expressed in E. coli; heavy chain vector adds CH1 with His6 and Flag tags, light chain vector adds lambda CL; also called H:KT TRV & L:LP T53L) VH: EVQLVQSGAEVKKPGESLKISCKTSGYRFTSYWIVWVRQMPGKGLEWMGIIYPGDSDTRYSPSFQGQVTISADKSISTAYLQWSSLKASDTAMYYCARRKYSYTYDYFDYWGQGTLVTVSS VL: QTVVTQEPSFSVSPGGTVTLTCGLSSGSVSTSYYPSWYQQTPGQAPRTLIYSLNTRSSGVPDRFSGSILGNKAALTITGAQADDESDYYCLLYMGPGISYVFGTGTKVTVL
A: 0.18
